- ASSAYED_SYSTEM: Listeriolysin regulatory protein (Listeria monocytogenes serovar 1/2a (strain ATCC BAA-679 / EGD-e))
- ASSAY_TEXT: Inhibition of PrfA in Listeria monocytogenes EGD-e assessed as downregulation of ActA expression at 10 uM by Western blot method
The source made the active and inactive calls. No cut-off for these calls is given here.
A correct response names exactly one class from label 1 = active, label 0 = inactive

Any idea what this test logged for COc1c(Cc2cccc3ccccc23)cc(=O)n2c1SCC2C(=O)O (racemic) ?
label 0

***
What outcome does the record of this test show for Cc1cccc(Cc2cc(=O)n3c(c2N(C)C)SCC3C(=O)O)c1C (racemic) ?
label 1

Could you please tell me the result logged for O=C(O)[C@@H]1CSc2c(C3CC3)c(Cc3cccc4ccccc34)cc(=O)n21 in this assay?
label 1

Please indicate how the test categorized CN(C)c1c(Cc2cccc3ccccc23)cc(=O)n2c1SCC2C(=O)O.Cl (racemic) .
label 1
